- procedure details: Evaluation method 2: quantitating improvement of unpleasant flavor of potassium chloride as K/Na ratio against standard solutions, chicken stock soup
- details: glycoside or aglycone 25 ppm final in standard solution 8; FIG. 17
measured property: improvement effect against the unpleasant flavor of potassium chloride

compound	reported measurement
O=c1c(-c2ccc(O)cc2)coc2cc(O[C@@H]3O[C@H](CO)[C@@H](O)[C@H](O)[C@H]3O)ccc12 [daidzin, Daidzin]	high effect
O=c1cc(-c2ccc(O)cc2)oc2cc(O[C@@H]3O[C@H](CO)[C@@H](O)[C@H](O)[C@H]3O)cc(O)c12 [apigenin 7-glucoside, Apigenin 7-glucoside]	high effect
O=c1cc(-c2ccc(O)cc2)oc2cc(O)cc(O)c12 [apigenin, Apigenin]	high effect
